assayed_target: Glycogen synthase kinase-3 beta (Homo sapiens)
condition_set: Compound concentration 20.0 uM
Description: Thermal Shift Assay. Domain: start/stop: M26-R383
Kindly return Satisfied if reported ΔTm is no lower than 0.4 °C; return Not satisfied if it is lower.

1) N=C(N)SCc1ccc(CN2C(=O)C(=O)c3cc(C(F)(F)F)ccc32)cc1; Not satisfied
2) O=c1[nH]c(Oc2cnn(Cc3ccccc3)c2)nc2cnccc12; Not satisfied
3) Cc1ccc2[nH]c(-n3nc(C)c(Cc4ccccc4)c3O)nc2c1; Satisfied
4) Cc1c(CN2CCC(Nc3ncnc4sc(CC(F)(F)F)cc34)CC2)ccc2[nH]c(C#N)cc12; Not satisfied
5) C[C@]12CCCN1CC1=NNC(=O)c3cc(F)cc4[nH]c2c1c34; Satisfied
6) CNCc1ccc(-c2cc3cc(F)cc(C(N)=O)c3o2)cc1; Satisfied

###

assayed_target: Glycogen synthase kinase-3 beta (Homo sapiens) (UniProt P49841)
Sequence (P49841 whole entry, looked up): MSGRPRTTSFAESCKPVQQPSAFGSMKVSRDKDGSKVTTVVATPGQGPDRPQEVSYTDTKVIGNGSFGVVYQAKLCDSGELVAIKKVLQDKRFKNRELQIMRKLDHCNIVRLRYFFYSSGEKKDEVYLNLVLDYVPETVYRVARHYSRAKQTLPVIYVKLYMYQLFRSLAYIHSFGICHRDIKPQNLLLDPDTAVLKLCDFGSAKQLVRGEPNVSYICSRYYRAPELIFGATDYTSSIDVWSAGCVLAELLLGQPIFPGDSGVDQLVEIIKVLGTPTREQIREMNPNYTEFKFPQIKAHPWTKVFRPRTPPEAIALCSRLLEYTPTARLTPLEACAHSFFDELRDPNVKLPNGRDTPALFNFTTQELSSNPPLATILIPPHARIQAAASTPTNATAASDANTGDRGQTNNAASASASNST
condition_set: Compound concentration 20.0 uM
Residues, ends and D or L forms follow the SMILES beside them.
The entries below come with measured ΔTm values attached.
readout_name: ΔTm

1. O=C(O)C1CCCN(CCC=C(c2ccccc2)c2ccccc2)C1 (configuration not stated); -0.66 °C
2. NC(=O)C1CN(CCCCC(c2ccc(F)cc2)c2ccc(F)cc2)CCN1CC(=O)Nc1c(Cl)cc(N)cc1Cl (configuration not stated); -5.78 °C
3. COc1ccc2nc3[nH]nc(C)c3c(NCCOCCO)c2c1; 2.8 °C
4. CC(=O)N[C@@H](CC(C)C)C(=O)N[C@@H](CCC(=O)O)C(=O)N[C@@H](Cc1cnc[nH]1)C(=O)N[C@H](C=O)CC(=O)O (Ac-LEHD-aldehyde); -0.79 °C
5. C[C@H](Nc1cc(Cl)nc2c1cnn2[C@@H]1O[C@H](COP(=O)(O)CP(=O)(O)O)[C@@H](O)[C@H]1O)c1ccccc1F; 1 °C
6. O=c1cc(-c2ccc(O)cc2)oc2c(CN3CCN(Cc4cccs4)CC3)c(O)cc(O)c12; 2.99 °C
7. Cc1ncccc1-c1cnc(NCc2c(F)ccc3c2CCO3)n2cnnc12; -0.06 °C

###

assayed_target: Tyrosine-protein kinase ABL1 (Homo sapiens)
condition_set: Compound concentration 20.0 uM
Description: Thermal Shift Assay. Domain: start/stop: S229-K512
Residues, ends and D or L forms follow the SMILES beside them. *: point of attachment. Boc = CC(C)(C)OC(=O)*
Cut-off 0.2 °C on ΔTm: below means y, at or above means n.

1) CC(C)(C)NS(=O)(=O)c1ccc(NC(=O)[C@H](Cc2ccccc2)NC(=O)c2ccc(F)cc2)cc1; n
2) COCCOc1cc(CC2CCN(CCc3ccc4c(c3)C(=O)CCO4)CC2)ccc1Br; n
3) CNc1nccc(CN(CC2CCNCC2)S(=O)(=O)c2ccc(S(=O)(=O)N(Cc3ccc(Cl)cc3)C3CCCC3)cc2)n1; n
4) Cn1ncc2c(-c3c(-c4ccc(F)cn4)nn4c3COC(C)(C)C4)ccnc21; n
5) CC(C)C[C@@H](C=O)NC(=O)[C@@H](NS(=O)(=O)c1ccc(F)cc1)C(C)C; y
6) COc1ccc(N2CCN(C(=O)c3cc4c(s3)-c3ccccc3S(=O)(=O)C4)CC2)cc1; y
7) CC(C)(C)OC(=O)N1CCC[C@H]1C(=O)N1CCC[C@H]1C=O (Boc-Pro-Pro-aldehyde); n
8) Cc1cc(C(=O)N2CCN(C3CN(C(=O)c4ccc(-c5ccccc5)cc4)C3)CC2)no1; n
9) C[C@H](NC(=O)c1cn(C2(C#N)CC2)cn1)C(=O)Nc1nc(-c2cccc(-c3ccn(C)n3)c2)cs1; n
10) CCCc1nc(C)c2c(=O)nc(-c3cc(S(=O)(=O)N4CCN(CC)CC4)ccc3OCC)[nH]n12; y
11) Cc1ccc([N+](=O)[O-])cc1S(=O)(=O)N(C)C; n
12) COc1ccccc1S(=O)(=O)Nc1ccc2c(c1)CN(C)C(=O)N2; n
13) Nc1ccccc1NC(=O)c1ccc(CNC(=O)OCc2cccnc2)cc1; n
14) Cc1cc(C)nc(SCC(=O)Nc2ncc(Cc3cccc(OCc4cn(Cc5ccccc5)nn4)c3)s2)n1; y
15) CN(C(=O)CCCOc1ccc2[nH]c(=O)ccc2c1)C1CCCCC1; n
16) COc1cc2c(cc1OC)[C@H]1C[C@@H](O)[C@H](CC(C)C)CN1CC2; y
17) CCCNC(=O)[C@H]1O[C@@H]1C(=O)N[C@H](C(=O)N1CCC[C@H]1C(=O)O)[C@@H](C)CC; n
18) CC[C@H](C)[C@H](NC(C)=O)C(=O)N[C@@H](CCC(=O)O)C(=O)N[C@H](C(=O)N[C@H](C=O)CC(=O)O)[C@@H](C)O (Ac-IETD-aldehyde); n
19) COc1ncc(C)cc1CC[C@@](O)(CC(=O)O)C(=O)O; n
20) Cc1ncccc1-c1cnc(NCc2c(F)ccc3c2CCO3)n2cnnc12; y
21) CCNC(=O)/C=C/c1cccc(Br)c1; n
22) Cc1ccc(C)c(-n2sc3cc(F)ccc3c2=O)c1; y
23) CC(C)Cn1c(=O)n(C)c(=O)c2c(C(=O)N3CC[C@@H](O)C3)c(Cc3ccnc4ccccc34)sc21; y
24) N#C[C@@H]1C[C@@H]2C[C@@H]2N1C(=O)[C@@H](N)C12CC3CC(CC(O)(C3)C1)C2; n
25) CS(=O)(=O)c1ncn2c(NCc3c(F)ccc4c3CCO4)ncc(-c3ccc(C4CC4)nc3)c12; n
26) CCNC(=O)c1noc(-c2cc(C(C)C)c(O)cc2O)c1-c1ccc(CN2CCOCC2)cc1; n
27) Cc1nc2ccccn2c1C(=O)CN1CCN(c2ccc(F)cn2)CC1; y

###

assayed_target: Aurora kinase A (Homo sapiens) (UniProt O14965)
Sequence (whole entry): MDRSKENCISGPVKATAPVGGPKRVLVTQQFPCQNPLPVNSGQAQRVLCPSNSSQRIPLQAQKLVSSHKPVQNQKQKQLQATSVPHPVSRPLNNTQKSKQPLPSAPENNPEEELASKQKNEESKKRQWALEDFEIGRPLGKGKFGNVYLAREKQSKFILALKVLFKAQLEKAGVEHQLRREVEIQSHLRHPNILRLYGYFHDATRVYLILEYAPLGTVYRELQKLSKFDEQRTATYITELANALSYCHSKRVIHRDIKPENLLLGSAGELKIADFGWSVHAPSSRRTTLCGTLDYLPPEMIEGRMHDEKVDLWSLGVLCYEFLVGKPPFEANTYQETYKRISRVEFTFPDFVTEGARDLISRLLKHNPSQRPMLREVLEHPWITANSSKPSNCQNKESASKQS
condition_set: Compound concentration 20.0 uM
Description: Thermal Shift Assay. Domain: start/stop: E122-S403
Checkbox rule: ΔTm lower than -0.9 °C = yes; ΔTm not lower than -0.9 °C = no.

1. O=C(NCCCc1ccccc1)c1cccc(-c2cc(O)c3ncccc3c2)c1; no
2. O=C(Nc1c(Cl)cncc1Cl)c1ccc(OC(F)F)c(OCC2CC2)c1; yes
3. Cn1nc(C(C)(C)C)cc1C(=O)NC(Cc1cccc(Cl)c1)C(=O)NCC#N (stereo not drawn); yes
4. CCCN1CCN(c2ccc(C(=O)NC3(C(=O)NCC#N)CCCCC3)cc2)CC1; no
5. Cc1cc(S(C)(=O)=O)c(S(C)(=O)=O)cc1C(=O)NC(=N)N; yes
6. CC(C)N(C(=O)c1cc(F)ccc1Oc1cncnc1N1CC2(CCN(C[C@H]3CC[C@H](NS(C)(=O)=O)CC3)CC2)C1)C(C)C; yes
7. C[C@]12CCCN1CC1=NNC(=O)c3cc(F)cc4[nH]c2c1c34; no
8. C[C@H](NC(=O)CCc1nc2ccccc2c(=O)[nH]1)c1ccccc1; yes
9. O=C(Nc1cc(C(F)F)ns1)Nc1cc(F)ncc1CO; yes
10. O=c1cc(-c2ccc(O)cc2)oc2c(CN3CCN(Cc4cccs4)CC3)c(O)cc(O)c12; no
11. O=C(NO)c1ccc(CN2CCCc3cc(Cl)ccc32)cc1; no
12. COc1cc2c(cc1OC)[C@H]1C[C@@H](O)[C@H](CC(C)C)CN1CC2; no
13. CC#C[C@]1(O)CC[C@H]2[C@@H]3CCC4=CC(=O)CCC4=C3[C@@H](c3ccc(N(C)C)cc3)C[C@@]21C; yes
14. O=c1[nH]c(Oc2cnn(Cc3ccccc3)c2)nc2cnccc12; yes
15. Cc1cc(/N=N/c2ccc(S(=O)(=O)Nc3ccccn3)cc2)c(N)cc1O; yes
16. N#Cc1cc(F)cc(Oc2ccc3c(c2C(F)F)[C@@H](O)C(F)(F)S3(=O)=O)c1; yes
17. O=C(NCC1(c2nc(-c3ccccc3)cs2)CCOCC1)c1cccc(-c2noc(C(F)(F)F)n2)c1; no
18. CCC(=O)N1CCOc2c(cc(-c3cc(OC)cc(OC)c3)cc2C(=O)N[C@H]2CCCN(C)C2)C1; no
19. COc1ccccc1C(=O)Nc1cc2c(cc1N1CCCCC1)n(C)c(=O)n2C; yes
20. CCCn1/c(=N/C(=O)c2cccc(C(N)=O)c2)[nH]c2ccccc21; no
21. CNC(=O)O[C@H]1COc2ccc(N3CCN(C4COC4)CC3)cc2[C@@H]1NC(=O)c1ccc(F)cc1; yes
22. CNCC[C@@H](Oc1ccccc1C)c1ccccc1; yes
23. NS(=O)(=O)OC[C@H]1C[C@@H](Nc2ccnc3cc(-c4cccc(SC(F)(F)F)c4)nn23)[C@H](O)[C@@H]1O; yes
24. N#Cc1cccnc1N1CCN(C(=O)c2cccc(Cc3n[nH]c(=O)c4ccccc34)c2)CC1; yes
25. CNCCN(C)Cc1cn[nH]c1-c1ccc(OC2CC(OCCC3CCOCC3)C2)cc1 (stereo not drawn); no
26. CC1=NN(c2ccc(C(=O)O)cc2)C(=O)/C1=C/c1ccc(-c2cc(C)c(C)cc2[N+](=O)[O-])o1; yes
27. C[C@@H]1CN(c2ncc(Cl)c(Nc3ccc4c(c3)n(CCC(C)(C)O)c(=O)n4C)n2)C[C@H](C)C1(F)F; no
28. CC(C)[C@H](NC(=O)OCc1ccccc1)C(=O)NC(CC(=O)O)C(=O)CF (stereo partly drawn); yes
29. COc1ccc(C2C(C#N)=C(N)OC3=C2C(=O)CC(c2cccc4ccccc24)C3)cc1 (stereo not drawn); yes
30. CCCC(NC(=O)C(CC(C)C)NC(=O)OCc1ccccc1)C(=O)C(=O)NCc1ccccn1 (racemic); yes
31. O=C(NCC1CCOCC1)c1n[nH]cc1NC(=O)c1c(F)cccc1F; no
32. C[C@H]1CO[C@@H]2Cn3cc(C(=O)NCc4ccc(F)cc4F)c(=O)c(O)c3C(=O)N12; yes
33. N#Cc1cc2cc(CN3CCC(Nc4ncnc5sc(CC(F)(F)F)cc45)CC3)ccc2[nH]1; no
